- Protocol Description: chemical genetic growth profiling, strain panel (AID 1159580);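 note: tested at 20 µM; growth read once vehicle control cultures reached saturation at 30 °C; 1 = growth at the plate median or of vehicle wells; lower values mean less growth of the strain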
- Reported Conditions: S. cerevisiae deletion strains, growth OD, locus YJL128C, strain PBS2, hits give low values
About 2,000 (36%) of roughly 5,500 compounds were called active. About 18% were inconclusive and are not listed. The list shows a part of the results.
Metric: normalized growth
Form: value (number only, do not type unit).

O=C(Nc1ccc(OC(F)(F)F)cc1)OC1CN(C(c2ccccc2)c2ccccc2)C1: 0.993
Cc1onc(-c2c(F)cccc2Cl)c1C(=O)ON=C1C2CC3CC(C2)CC1C3: 1.01
FC(F)(F)c1cccc(-n2c(CSCc3cccc4ccccc34)n[nH]c2=S)c1: 0.979

// lookup normalized growth for CC(=O)ON=C1c2cc([N+](=O)[O-])ccc2-c2ccc([N+](=O)[O-])cc21
0.917

###

normalized growth values for the compounds below.
- Protocol Description: chemical genetic growth profiling, strain panel (AID 1159580);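 note: tested at 20 µM; growth read once vehicle control cultures reached saturation at 30 °C; 1 = growth at the plate median or of vehicle wells; lower values mean less growth of the strain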
- Reported Conditions: S. cerevisiae deletion strains, growth OD, locus YMR231W, strain pep5, hits give low values
The whole screen tested about 5,500 compounds, of which about 2,000 (36%) were called active. Not shown: some 18% with an inconclusive outcome. Some of the results follow.
Number, no unit, nothing else.

Below: 4 compounds and their reported normalized growth.
Cc1ccc(C)c(OCCCC(C)(C)C(=O)O)c1: 0.964
COc1ccc(-c2coc3cc(OC)cc(OC)c3c2=O)cc1: 0.977
O=C(C1CCCCC1)N1CC(=O)N2CCc3ccccc3C2C1 (stereo not drawn): 1
CC(=O)OC1CCC2(C)C(=CC=C3C2CCC2(C)C3CCC2C(C)/C=C/C(C)C(C)C)C1(C)C (stereo not drawn): 1.02

Any idea what normalized growth was measured for Oc1ccc(Cl)cc1Cc1cc(Cl)ccc1O ?
0.085

Entry under review: CCOC(=O)Nc1nc2ccccc2[nH]1 . Reported normalized growth?
0.989

// query normalized growth value for entry CC(C)NCC(O)c1cc(O)cc(O)c1 (stereo not drawn)
0.998

Would you kindly share the measured normalized growth for COC(=O)C1=CCCN(C)C1 ?
1.01

###

- Protocol Description: chemical genetic growth profiling, strain panel (AID 1159580);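 note: tested at 20 µM; growth read once vehicle control cultures reached saturation at 30 °C; 1 = growth at the plate median or of vehicle wells; lower values mean less growth of the strain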
- Reported Conditions: S. cerevisiae deletion strains, growth OD, locus YPL240C, strain hsp82, hits give low values
Among all 5,500 compounds or so, about 2,000 (36%) were called active. Inconclusive results (about 18%) are left out. Some of the results follow.
Metric: normalized growth
// print number alone

C=C1CCC(OC(C)=O)/C(C)=C/C[C@@H]2[C@@H]1CC2(C)C (stereo partly drawn): 1.01

normalized growth lookup needed for Clc1cccc(Cl)c1NC1=NCCN1 , thanks.
1

So what does the record say about normalized growth for O=C1OC2(c3ccc(O)cc3Oc3cc(O)ccc32)c2ccccc21 ?
1.01

Find the recorded normalized growth belonging to CCOC(=O)[C@H](CCc1ccccc1)N[C@@H](C)C(=O)N1[C@H](C(=O)O)C[C@@H]2CCC[C@@H]21 and report it.
0.984

Which normalized growth value belongs to CC(C)NCC(O)c1cc(O)cc(O)c1 (stereo not drawn) ?
0.984

Look at this compound and give its reported normalized growth. CCC(C)C(=O)O[C@H]1C[C@H](O)C=C2C=C[C@H](C)[C@H](CC[C@@H](O)C[C@@H](O)CC(=O)O)C21 (stereo partly drawn)
1.01

normalized growth for O=C(O)CN(CC(=O)O)Cc1cc2c(-c3ccccc3C(=O)O)c3cc(CN(CC(=O)O)CC(=O)O)c(=O)cc-3oc2cc1O ?
0.971

Return reported normalized growth; argument: CC(=O)OCC[C@H](C)CCC=C(C)C
0.99

Quick check: normalized growth of CC(C)C(C)/C=C/C(C)[C@H]1CCC2C3=CCC4CC(=O)CC[C@]4(C)C3CC[C@@]21C (stereo partly drawn) ?
0.998

So what's the measured normalized growth for this one? O=C1OC(c2ccc(O)cc2)(c2ccc(O)cc2)c2ccccc21
0.982

Look up normalized growth for this compound: O=c1cc[nH]c(=S)[nH]1
1.01

Entry CC(C)NNC(=O)c1ccncc1 : reported normalized growth = ?
1.02

Please give the measured normalized growth for this compound: CC(C)NCC(O)COc1cccc2ccccc12 (stereo not drawn)
0.993

What does the data say about its normalized growth? Entry: OCc1ccccc1O
1.01

Item CC(C(=O)O)c1ccc(C(=O)c2cccs2)cc1 (stereo not drawn) has what recorded normalized growth?
0.992

Can you look up the measured normalized growth of Oc1ccc(Cl)cc1Cc1cc(Cl)ccc1O for me?
0.0585

Item under review: COC(=O)[C@@H]1OC(=O)[C@H]2O[C@@]23[C@@]1(C)CCC1[C@@]2(C)CCC(=O)C(C)(C)C2C[C@@H](OC(C)=O)[C@]13C (stereo partly drawn) . Reported normalized growth?
0.976

Tell me the measured normalized growth of C=C1CCC2C(CC2(C)C)C(=C)CC/C1=N\O (stereo not drawn) , please.
1

Sample CCCCN1CCCCC1C(=O)Nc1c(C)cccc1C (stereo not drawn) — what was its normalized growth?
0.982

Could you share which normalized growth value was measured for CC1OC1P(=O)(O)O (stereo not drawn) ?
0.997

Source of measurements: PubChem BioAssay AID1159580
